From: PubChem BioAssay AID1845204

tested on: HSSY-II tumor spheroid viability; assay: Anticancer human tumor HSSY-II cell line growth inhibition; conditions: second compound 3.16 µM; first compound 1 µM; spheroids with HUVEC and MSC; active = viability on the fitted dose curve at most 10% of control; inactive = the rest;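 note: spheroids exposed to compounds for seven days before reading; percent of DMSO vehicle control viability so 100% = untreated level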
Allowed answers: 1 for active, 0 for inactive

Consider the following illustrative entries.
IN: Dear all, I need the recorded test outcome for Cc1cc(C)c(CNC(=O)c2cc(-c3ccc(CN4CCOCC4)cc3)cc3c2cnn3C2CCCC2)c(=O)[nH]1 + Cn1nnc2c(C(N)=O)ncn2c1=O , thank you.
OUT: 0

IN: Dear colleague, could you share the recorded outcome for CC1COCCN1c1cc(-c2ccnn2C)c2ccnc(-c3ccn[nH]3)c2n1 (stereo unspecified) + Cn1nnc2c(C(N)=O)ncn2c1=O when you have a moment?
OUT: 1

IN: In this assay, the call recorded for COc1ccc([C@@H](O)c2cc(-c3ncnc4cc(N5CCOCC5)ccc34)c(F)cc2Cl)nn1 + Cn1nnc2c(C(N)=O)ncn2c1=O was what?
OUT: 0

***
IN: # lookup: test call for [2H]c1nc(C)nc([2H])c1-c1cc(NC[C@@H](C)c2cccc3c(C(=O)NC)ccnc23)ncn1 + Cn1nnc2c(C(N)=O)ncn2c1=O
OUT: 0

IN: Which outcome was entered for the molecule COc1cc(C)[nH]c(=O)c1CN1CCc2c(Cl)cc(C(OC)C3COC3)c(Cl)c2C1=O (stereo unspecified) + Cn1nnc2c(C(N)=O)ncn2c1=O in this test?
OUT: 0

IN: Per the assay record, what outcome was assigned to CC(C)n1c(=O)n(C)c2cnc3cc(F)c(-c4ccc(OCCCN5CCCCC5)nc4)cc3c21 + Cn1nnc2c(C(N)=O)ncn2c1=O ?
OUT: 0
